System: Male Guinea pigs
test-protocol: Primary in vivo bronchodilator assay for muscarinic antagonists (reversal of carbachol bronchoconstriction)
Set-up: species or system guinea pig
condition-info: Cavia porcellus, iv, cumulative dose causing 50% reversal of carbachol bronchoconstriction
Method: PRIMARY IN VIVO BRONCHODILATOR ASSAY FOR MUSCARINIC ANTAGONISTS Male Guinea pigs were anesthetized by urethane. The trachea, carotid artery and jugular vein were cannulated. Animals were ventilated with room air at a constant rate and volume. Airway pressure was measured from a side port of the tracheal catheter, and blood pressure and heart rate were monitored as well. After a stable baseline period, an aerosol of carbachol was administered via an ultrasonic nebulizer. […]
Where a name gives a salt, the structure may show the parent alone.
metric: ED50

Examples from the recorded data:
1) CCCCc1nccn1CC1CC(c2ccccc2)(c2ccccc2)C(=O)O1 (centres unmarked); > 10 mg/kg
2) O=C1OC(Cn2ccnc2-c2ccccc2)CC1(c1ccccc1)c1ccccc1 (centres unmarked); > 6 mg/kg
3) CC(C)(C)c1nccn1CC1CC(c2ccccc2)(c2ccccc2)C(=O)O1 (centres unmarked) [hydrochloride]; 0.14 mg/kg
4) COCc1nccn1CC1CC(c2ccccc2)(c2ccccc2)C(=O)O1 (centres unmarked) [hydrochloride hydrate]; > 10 mg/kg

Read the next record carefully.
**Q:** Form: Entry = CCCc1nccn1CC1CC(c2ccccc2)(c2ccccc2)C(=O)O1 (centres unmarked) [hydrochloride] | System = Male Guinea pigs | ED50 = ____
**A:** 1.3 mg/kg

----------
assayed-target: muscarinic cholinergic receptors on intestinal (ileal-longitudinal) smooth muscle (Cavia porcellus)
Construct: The longitudinal muscle, with the myenteric plexus attached, is separated from the underlying circular muscle; from tissue; host or cells: guinea pig ileum, longitudinal smooth muscle with myenteric plexus
test-protocol: Antimuscarinic test: antagonism of carbachol contraction of isolated ileum (Muscarinic Antagonist Activity, Ileum)
Design: species or system guinea pig
condition-info: carbachol agonist, 37° C.
Where a name gives a salt, the structure may show the parent alone.
Output criterion met for records whose Kb is lower than 0.02 µM, criterion not met for records at or above 0.02 µM.

1. CCc1nccn1C[C@@H]1CC(c2ccccc2)(c2ccccc2)C(=O)O1 [hydrochloride]; criterion not met
2. CC(C)c1nccn1C[C@H]1CC(c2ccccc2)(c2ccccc2)C(=O)O1 [hydrochloride]; criterion met
3. CCc1nccn1C[C@H]1CC(c2ccccc2)(c2ccccc2)C(=O)O1 [hydrochloride]; criterion not met
4. CC(C)(C)c1nccn1CC1CC(c2ccccc2)(c2ccccc2)C(=O)O1 (centres unmarked) [hydrochloride]; criterion met
5. C[n+]1ccn(CC2CC(c3ccccc3)(c3ccccc3)C(=O)O2)c1 (centres unmarked) [hydrate]; criterion not met
6. O=C1OC(C[N+]2=C3CCCCCN3CCC2)CC1(c1ccccc1)c1ccccc1 (centres unmarked) [hydrate]; criterion not met
7. COCCc1nccn1CC1CC(c2ccccc2)(c2ccccc2)C(=O)O1 (centres unmarked) [hydrochloride]; criterion not met

**Q:** Below 0.02 µM on Kb? Entry CCCc1n(CC2CC(c3ccccc3)(c3ccccc3)C(=O)O2)cc[n+]1C (centres unmarked)
**A:** criterion not met

----------
assayed-target: muscarinic cholinergic receptors on intestinal (ileal-longitudinal) smooth muscle (Cavia porcellus, UniProt H0W1Z3)
Construct: The longitudinal muscle, with the myenteric plexus attached, is separated from the underlying circular muscle; from tissue; host or cells: guinea pig ileum, longitudinal smooth muscle with myenteric plexus
test-protocol: Antimuscarinic test: antagonism of carbachol contraction of isolated ileum (Muscarinic Antagonist Activity, Ileum)
Design: species or system guinea pig
condition-info: carbachol agonist, 37° C.
Structures can show the parent of a compound that is named as a salt.
metric: log10 of Kb (log10 of the value in µM)
Remember, log10 of Kb, in µM.

Example entries begin here.
1. O=C1OC(Cn2ccnc2)CC1(c1ccccc1)c1ccccc1 (stereo not drawn); -0.43
2. CCc1nc(C)cn1CC1CC(c2ccccc2)(c2ccccc2)C(=O)O1 (stereo not drawn) [hydrobromide]; -1.07
3. Cc1n(CC2CC(c3ccccc3)(c3ccccc3)C(=O)O2)cc[n+]1Cc1ccccc1 (stereo not drawn); -0.26
4. CCCc1nccn1CC1CC(c2ccccc2)(c2ccccc2)C(=O)O1 (stereo not drawn) [hydrochloride]; -1.68

Now take the following molecule into account.
**Q:** Returns the measured log10 of Kb for the input molecule. Input: COCc1nccn1CC1CC(c2ccccc2)(c2ccccc2)C(=O)O1 (stereo not drawn) [hydrochloride hydrate]
**A:** -1.17

----------
ED50 for assorted compounds
System: Male Guinea pigs
test-protocol: Primary in vivo bronchodilator assay for muscarinic antagonists (reversal of carbachol bronchoconstriction)
Set-up: species or system guinea pig
condition-info: Cavia porcellus, iv, cumulative dose causing 50% reversal of carbachol bronchoconstriction
Answer with a number only, understood to be in mg/kg.

1) C[n+]1ccn(CC2CC(c3ccccc3)(c3ccccc3)C(=O)O2)c1 (stereo not shown) [hydrate]; 1

**Q:** Look at this compound and give its reported ED50. CCc1n(CC2CC(c3ccccc3)(c3ccccc3)C(=O)O2)cc[n+]1C (stereo not shown)
**A:** 0.13

----------
test-protocol: Solubility
Format: physicochemical
condition-info: in 0.5N HCl and 1 drop of Tween 80
Where a name gives a salt, the structure may show the parent alone.
metric: solubility

**Q:** What value of solubility has been recorded for this entry: CC(C)c1nccn1CC1=CC(c2ccccc2)(c2ccccc2)C(=O)O1 [hydrochloride hydrate]
**A:** > 1000 µg/mL

----------
assayed-target: muscarinic cholinergic receptors on bladder detrusor muscle (Cavia porcellus)
Construct: The peritoneal cavity is opened and the bladder is held lightly at its apex; from tissue; host or cells: guinea pig urinary bladder, detrusor strips without mucosa
Sequence (H0W1Z3 1-590): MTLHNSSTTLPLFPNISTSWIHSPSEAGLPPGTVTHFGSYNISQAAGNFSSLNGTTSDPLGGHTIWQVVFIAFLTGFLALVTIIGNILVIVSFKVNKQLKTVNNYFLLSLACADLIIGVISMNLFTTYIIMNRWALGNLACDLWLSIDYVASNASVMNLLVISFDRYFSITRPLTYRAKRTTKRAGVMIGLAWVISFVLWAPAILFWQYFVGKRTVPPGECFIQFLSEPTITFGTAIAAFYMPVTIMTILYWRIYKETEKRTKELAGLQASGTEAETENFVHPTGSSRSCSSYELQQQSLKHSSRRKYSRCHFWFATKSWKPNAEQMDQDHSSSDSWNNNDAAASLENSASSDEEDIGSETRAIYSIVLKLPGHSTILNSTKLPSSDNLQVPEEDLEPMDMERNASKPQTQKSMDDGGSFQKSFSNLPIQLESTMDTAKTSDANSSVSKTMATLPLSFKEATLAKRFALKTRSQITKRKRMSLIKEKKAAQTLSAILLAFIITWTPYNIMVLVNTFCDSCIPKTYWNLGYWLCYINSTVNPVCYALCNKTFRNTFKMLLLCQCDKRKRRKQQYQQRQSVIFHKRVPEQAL
test-protocol: Antimuscarinic test: antagonism of carbachol contraction of isolated bladder (Muscarinic Antagonist Activity, Bladder)
Design: species or system guinea pig
condition-info: bladder detrusor strips, carbachol agonist, 35° C.
Counter-ions that a name gives are not always drawn.
# Lookup of reported log10(Kb) keyed by entry
Scale type: logarithmic (base 10). Underlying Kb unit: nM.

These recorded examples may help you get a feel for the data.
1. CCc1nccn1C[C@@H]1CC(c2ccccc2)(c2ccccc2)C(=O)O1 [hydrochloride]; 2.54
2. CCCc1n(CC2CC(c3ccccc3)(c3ccccc3)C(=O)O2)cc[n+]1C (stereo not shown); 1.04
3. C[n+]1ccn(CC2CC(c3ccccc3)(c3ccccc3)C(=O)O2)c1 (stereo not shown) [hydrate]; 2.18
4. CC(C)c1nccn1CC1CC(c2ccccc2)(c2ccccc2)C(=O)O1 (stereo not shown) [hydrochloride]; 1.52
5. CCc1nccn1C[C@H]1CC(c2ccccc2)(c2ccccc2)C(=O)O1 [hydrochloride]; 2.11

**Q:** Any idea what its log10(Kb) is? The compound is CCc1n(CC2CC(c3ccccc3)(c3ccccc3)C(=O)O2)cc[n+]1C (stereo not shown)
**A:** 0.70

**Q:** Which value of log10(Kb) has been reported for CCc1nccn1CC1CC(c2ccccc2)(c2ccccc2)C(=O)O1 (stereo not shown) [hydrochloride] in the records?
**A:** 1.93

**Q:** May I ask what log10(Kb) has been recorded for CCOCc1n(C)cc[n+]1CC1CC(c2ccccc2)(c2ccccc2)C(=O)O1 (stereo not shown) ?
**A:** 2.53

**Q:** What value of log10(Kb) has been recorded for this entry: Cc1nccn1CC1CC(c2ccccc2)(c2ccccc2)C(=O)O1 (stereo not shown)
**A:** 2.38

**Q:** What value of measured log10(Kb) is listed for CC(C)c1nccn1C[C@H]1CC(c2ccccc2)(c2ccccc2)C(=O)O1 [hydrochloride] ?
**A:** 1.18

**Q:** Reported log10(Kb) for CCCc1nccn1CC1CC(c2ccccc2)(c2ccccc2)C(=O)O1 (stereo not shown) [hydrochloride] : what is it?
**A:** 1.85

----------
assayed-target: muscarinic cholinergic receptors on intestinal (ileal-longitudinal) smooth muscle (Cavia porcellus, UniProt H0W1Z3)
Construct: The longitudinal muscle, with the myenteric plexus attached, is separated from the underlying circular muscle; from tissue; host or cells: guinea pig ileum, longitudinal smooth muscle with myenteric plexus
test-protocol: Antimuscarinic test: antagonism of carbachol contraction of isolated ileum (Muscarinic Antagonist Activity, Ileum)
Design: species or system guinea pig
condition-info: carbachol agonist, 37° C.
Where a name gives a salt, the structure may show the parent alone.
metric: log10(Kb) (log10 of the value in nM)
Heads up, the numbers here are log10 of Kb in nM units.

1) CC(C)c1nccn1CC1CC(c2ccccc2)(c2ccccc2)C(=O)O1 (centres unmarked) [hydrochloride]; 1.48
2) O=C1OC(Cn2ccnc2-c2ccccc2)CC1(c1ccccc1)c1ccccc1 (centres unmarked); 3.77
3) CCOCc1n(C)cc[n+]1CC1CC(c2ccccc2)(c2ccccc2)C(=O)O1 (centres unmarked); 2.40

**Q:** Please look up its log10(Kb): CCc1n(CC2CC(c3ccccc3)(c3ccccc3)C(=O)O2)cc[n+]1C (centres unmarked)
**A:** 0.90

**Q:** What log10(Kb) value was documented for this molecule, O.O=C1OC(C[n+]2ccn3c2CCC3)CC1(c1ccccc1)c1ccccc1.[Cl-] (centres unmarked) [hydrate] ?
**A:** 1.52

**Q:** What value of log10(Kb) has been recorded for this entry: CCn1cc[n+](CC2CC(c3ccccc3)(c3ccccc3)C(=O)O2)c1 (centres unmarked)
**A:** 2.36

**Q:** Which log10(Kb) is listed for CC(C)c1nccn1CC1=CC(c2ccccc2)(c2ccccc2)C(=O)O1 [hydrochloride hydrate] ?
**A:** 1.49

**Q:** Quick one: log10(Kb) for O=C1OC(Cn2cnc3ccccc32)CC1(c1ccccc1)c1ccccc1 (centres unmarked) ?
**A:** 3.11

**Q:** So what does the record say about log10(Kb) for CCc1nccn1CC1CC(c2ccccc2)(c2ccccc2)C(=O)O1 (centres unmarked) [hydrochloride] ?
**A:** 1.83

**Q:** Dear colleague, I am looking for the recorded log10(Kb) of the following molecule: CC(C)Cc1nccn1CC1CC(c2ccccc2)(c2ccccc2)C(=O)O1 (centres unmarked) [hydrochloride]
**A:** 2.69

**Q:** Which log10(Kb) value is on record for COC(=O)c1nccn1CC1CC(c2ccccc2)(c2ccccc2)C(=O)O1 (centres unmarked) [hydrochloride] ?
**A:** 2.64

**Q:** Return reported log10(Kb); argument: COCCc1n(CC2CC(c3ccccc3)(c3ccccc3)C(=O)O2)cc[n+]1C (centres unmarked) [hydrate]
**A:** 1.59

**Q:** Given the entry O=C1OC(Cn2ccnc2Cc2ccccc2)CC1(c1ccccc1)c1ccccc1 (centres unmarked) [hydrochloride] , report its measured log10(Kb).
**A:** 2.35

**Q:** Look up log10(Kb) for this molecule: Cc1cccn2cc[n+](CC3CC(c4ccccc4)(c4ccccc4)C(=O)O3)c12 (centres unmarked) [hydrate]
**A:** 1.87

**Q:** Record request: log10(Kb) value, item Cc1nccn1CC1CC(c2ccccc2)(c2ccccc2)C(=O)O1 (centres unmarked)
**A:** 2.03

**Q:** Looking for the measured log10(Kb) of CCCCc1nccn1CC1CC(c2ccccc2)(c2ccccc2)C(=O)O1 (centres unmarked) , can you help?
**A:** 2.05

**Q:** Look up log10(Kb): O=C1OC(C[n+]2ccn3ccccc32)CC1(c1ccccc1)c1ccccc1 (centres unmarked) [hydrate]
**A:** 1.65
